- tested.target: D(1A) dopamine receptor (Rattus norvegicus)
- Sequence (P18901 whole entry): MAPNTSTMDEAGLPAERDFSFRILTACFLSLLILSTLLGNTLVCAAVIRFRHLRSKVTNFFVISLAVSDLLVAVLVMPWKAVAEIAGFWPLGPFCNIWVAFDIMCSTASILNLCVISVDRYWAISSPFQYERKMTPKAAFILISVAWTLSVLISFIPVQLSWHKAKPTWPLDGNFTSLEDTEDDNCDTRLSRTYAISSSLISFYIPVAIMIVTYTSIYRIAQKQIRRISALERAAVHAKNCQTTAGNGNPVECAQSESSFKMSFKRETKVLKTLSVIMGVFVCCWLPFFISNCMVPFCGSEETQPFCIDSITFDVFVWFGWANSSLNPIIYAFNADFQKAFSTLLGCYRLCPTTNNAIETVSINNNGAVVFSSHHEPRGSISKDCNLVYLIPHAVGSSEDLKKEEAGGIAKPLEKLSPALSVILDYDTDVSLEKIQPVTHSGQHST
- experiment.summary: Binding activity against Dopamine receptor D1 in rat brain, using [3H]SCH-23390 as the radioligand
- Format: tissue-based
measurement.type: IC50 (nM)

INSERT INTO results (molecule, measurement_type, units, numeric_readout) VALUES
  ('C/C=C1/c2ccccc2C=C(N2CCN(C)CC2)c2ccccc21', 'IC50', 'nM', 305),
  ('CC1c2ccccc2C=C(N2CCN(C)CC2)c2ccccc21 (configuration not stated)', 'IC50', 'nM', 74);

----------
- tested.target: D(2) dopamine receptor (Rattus norvegicus, UniProt P61169)
- Sequence (P61169 whole entry): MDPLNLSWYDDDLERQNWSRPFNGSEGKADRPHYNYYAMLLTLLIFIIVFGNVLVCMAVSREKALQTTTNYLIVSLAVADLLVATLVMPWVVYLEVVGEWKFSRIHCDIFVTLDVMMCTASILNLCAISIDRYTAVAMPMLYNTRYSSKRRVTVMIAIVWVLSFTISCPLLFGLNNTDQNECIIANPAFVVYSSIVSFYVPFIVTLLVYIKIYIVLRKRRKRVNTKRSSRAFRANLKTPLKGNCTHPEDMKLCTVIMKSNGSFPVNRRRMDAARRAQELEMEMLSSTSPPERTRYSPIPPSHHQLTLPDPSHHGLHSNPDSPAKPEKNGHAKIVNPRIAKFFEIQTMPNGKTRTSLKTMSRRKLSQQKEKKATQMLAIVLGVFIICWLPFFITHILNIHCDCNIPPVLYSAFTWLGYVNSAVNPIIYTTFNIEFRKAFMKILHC
- experiment.summary: Binding activity against Dopamine receptor D2 in rat brain, using [3H]spiperone as the radioligand
- Type: tissue-based
measurement.type: IC50 (nM)

INSERT INTO results (smiles_representation, tested_target, numeric_readout) VALUES
  ('CN1CCN(C2=Nc3ccccc3Nc3ccc(Cl)cc32)CC1', 'D(2) dopamine receptor (Rattus norvegicus, UniProt P61169)', 218);
